Target: STAT6 (Homo sapiens)
Sequence (P42226 1-847): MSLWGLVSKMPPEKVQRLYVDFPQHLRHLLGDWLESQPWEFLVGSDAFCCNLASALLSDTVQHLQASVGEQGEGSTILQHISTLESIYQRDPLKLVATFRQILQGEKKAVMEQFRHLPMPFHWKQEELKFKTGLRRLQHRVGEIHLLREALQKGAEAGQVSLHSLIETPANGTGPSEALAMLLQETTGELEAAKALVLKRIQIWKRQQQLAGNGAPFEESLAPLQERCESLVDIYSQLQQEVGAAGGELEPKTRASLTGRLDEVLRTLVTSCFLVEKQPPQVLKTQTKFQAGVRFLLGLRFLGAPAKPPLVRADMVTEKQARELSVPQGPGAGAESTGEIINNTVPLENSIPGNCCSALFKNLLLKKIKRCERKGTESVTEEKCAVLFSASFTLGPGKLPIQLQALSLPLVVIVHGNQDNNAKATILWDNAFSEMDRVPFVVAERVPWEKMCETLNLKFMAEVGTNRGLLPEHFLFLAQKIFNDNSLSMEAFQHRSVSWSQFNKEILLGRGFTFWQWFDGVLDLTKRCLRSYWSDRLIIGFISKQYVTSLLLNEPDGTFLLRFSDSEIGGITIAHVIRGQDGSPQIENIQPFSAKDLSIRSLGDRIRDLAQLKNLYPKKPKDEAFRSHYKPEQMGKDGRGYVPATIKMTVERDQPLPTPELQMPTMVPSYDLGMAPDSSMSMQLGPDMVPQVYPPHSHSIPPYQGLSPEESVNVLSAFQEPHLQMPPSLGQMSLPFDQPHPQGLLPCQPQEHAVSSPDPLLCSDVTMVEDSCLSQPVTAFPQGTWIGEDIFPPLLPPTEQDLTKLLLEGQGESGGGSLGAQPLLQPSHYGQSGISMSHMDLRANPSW
quantityKind: Ki (µM)
Kindly provide the numeric value in µM only, without the unit symbol.

Param item = O=C(COc1ccc(C(=O)Nc2ccc(Oc3ccccc3)cc2)cc1)NCc1ccc(OP(=O)(O)O)c(OP(=O)(O)O)c1 [compound 4] ; retrieve measured Ki.
11.7

----------
molecular target: STAT5a wild-type (Homo sapiens, UniProt P42229)
quantityKind: pKd
The quantity pKd is defined as the negative base-10 logarithm of the molar concentration.

Query (compound): O=C(COc1ccc(C(=O)Nc2ccc(Oc3ccccc3)cc2)cc1)NCc1ccc(OP(=O)(O)O)c(OP(=O)(O)O)c1 ; field requested: pKd
5.21

----------
target: STAT5b Arg618Ala (Homo sapiens, UniProt P51692, R618A); experiment: Isothermal titration calorimetry, STAT5b Arg618Ala; settings: ITC, 25 °C
Sequence (P51692 whole entry R618A): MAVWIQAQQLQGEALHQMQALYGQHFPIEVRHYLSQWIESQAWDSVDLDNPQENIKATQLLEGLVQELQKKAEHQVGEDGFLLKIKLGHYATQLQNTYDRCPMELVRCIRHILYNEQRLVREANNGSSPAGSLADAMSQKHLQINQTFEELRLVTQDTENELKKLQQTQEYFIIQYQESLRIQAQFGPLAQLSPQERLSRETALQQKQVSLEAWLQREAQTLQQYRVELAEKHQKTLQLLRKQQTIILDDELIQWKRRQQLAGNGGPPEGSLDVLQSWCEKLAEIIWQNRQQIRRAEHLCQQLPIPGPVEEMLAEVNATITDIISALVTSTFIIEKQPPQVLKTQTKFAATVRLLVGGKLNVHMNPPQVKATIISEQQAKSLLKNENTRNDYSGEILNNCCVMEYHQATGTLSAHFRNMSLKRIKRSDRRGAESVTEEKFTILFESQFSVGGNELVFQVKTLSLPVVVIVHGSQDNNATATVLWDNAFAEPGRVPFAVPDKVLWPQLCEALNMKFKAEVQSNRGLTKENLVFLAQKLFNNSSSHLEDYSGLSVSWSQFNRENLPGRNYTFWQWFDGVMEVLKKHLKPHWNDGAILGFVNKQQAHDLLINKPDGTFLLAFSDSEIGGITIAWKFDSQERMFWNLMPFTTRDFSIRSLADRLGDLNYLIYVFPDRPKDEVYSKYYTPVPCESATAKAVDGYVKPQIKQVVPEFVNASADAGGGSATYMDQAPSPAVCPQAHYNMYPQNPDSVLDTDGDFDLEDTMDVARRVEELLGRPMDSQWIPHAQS
quantityKind: pKd
Scale note: pKd = -log10(concentration in M).

Consider the compound shown here: O=C(COc1ccc(C(=O)Nc2ccc(Oc3ccccc3)cc2)cc1)NCc1ccc(OP(=O)(O)O)c(OP(=O)(O)O)c1 What is its recorded pKd?
5.25

----------
Target: STAT5a SH2 domain (Homo sapiens)
Sequence (P42229 1-794): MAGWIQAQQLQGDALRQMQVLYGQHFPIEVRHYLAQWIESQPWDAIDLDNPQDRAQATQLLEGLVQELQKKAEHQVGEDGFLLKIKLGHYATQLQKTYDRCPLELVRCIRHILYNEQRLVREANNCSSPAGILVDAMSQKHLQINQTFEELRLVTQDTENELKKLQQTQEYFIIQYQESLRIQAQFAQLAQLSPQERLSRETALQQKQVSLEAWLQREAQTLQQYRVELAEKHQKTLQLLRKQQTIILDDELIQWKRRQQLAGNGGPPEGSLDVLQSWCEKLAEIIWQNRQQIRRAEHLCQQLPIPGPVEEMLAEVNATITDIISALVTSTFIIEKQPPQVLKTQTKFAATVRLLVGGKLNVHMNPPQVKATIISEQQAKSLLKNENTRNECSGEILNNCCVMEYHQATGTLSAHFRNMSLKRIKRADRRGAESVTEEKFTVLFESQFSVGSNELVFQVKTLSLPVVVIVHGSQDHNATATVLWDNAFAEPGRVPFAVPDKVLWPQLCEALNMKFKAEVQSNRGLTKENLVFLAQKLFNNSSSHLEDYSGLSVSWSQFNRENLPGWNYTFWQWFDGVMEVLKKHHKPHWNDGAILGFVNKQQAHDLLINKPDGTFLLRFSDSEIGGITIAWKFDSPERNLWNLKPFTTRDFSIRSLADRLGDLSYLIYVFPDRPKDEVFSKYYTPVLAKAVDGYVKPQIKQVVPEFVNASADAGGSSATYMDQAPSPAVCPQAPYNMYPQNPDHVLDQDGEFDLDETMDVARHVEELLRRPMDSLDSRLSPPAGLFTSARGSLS
quantityKind: Ki (µM)
Record the value in µM, omitting the unit from your answer.

| smi | assayedTarget | endpointUnit | experimentalResult |
| --- | --- | --- | --- |
| O=C(COc1ccc2cc(C(=O)Nc3ccc(Oc4ccccc4)cc3)ccc2c1)NCc1ccc(OP(=O)(O)O)c(OP(=O)(O)O)c1 | STAT5a SH2 domain (Homo sapiens) | µM | 2.9 |

May I ask what Ki has been recorded for O=C(COc1ccc(C(=O)Nc2ccc(Oc3ccccc3)cc2)cc1)NCc1ccc(OP(=O)(O)O)c(OP(=O)(O)O)c1 ?
1.3

----------
Molecular target: STAT6 (Homo sapiens, UniProt P42226)
Sequence (P42226 1-847): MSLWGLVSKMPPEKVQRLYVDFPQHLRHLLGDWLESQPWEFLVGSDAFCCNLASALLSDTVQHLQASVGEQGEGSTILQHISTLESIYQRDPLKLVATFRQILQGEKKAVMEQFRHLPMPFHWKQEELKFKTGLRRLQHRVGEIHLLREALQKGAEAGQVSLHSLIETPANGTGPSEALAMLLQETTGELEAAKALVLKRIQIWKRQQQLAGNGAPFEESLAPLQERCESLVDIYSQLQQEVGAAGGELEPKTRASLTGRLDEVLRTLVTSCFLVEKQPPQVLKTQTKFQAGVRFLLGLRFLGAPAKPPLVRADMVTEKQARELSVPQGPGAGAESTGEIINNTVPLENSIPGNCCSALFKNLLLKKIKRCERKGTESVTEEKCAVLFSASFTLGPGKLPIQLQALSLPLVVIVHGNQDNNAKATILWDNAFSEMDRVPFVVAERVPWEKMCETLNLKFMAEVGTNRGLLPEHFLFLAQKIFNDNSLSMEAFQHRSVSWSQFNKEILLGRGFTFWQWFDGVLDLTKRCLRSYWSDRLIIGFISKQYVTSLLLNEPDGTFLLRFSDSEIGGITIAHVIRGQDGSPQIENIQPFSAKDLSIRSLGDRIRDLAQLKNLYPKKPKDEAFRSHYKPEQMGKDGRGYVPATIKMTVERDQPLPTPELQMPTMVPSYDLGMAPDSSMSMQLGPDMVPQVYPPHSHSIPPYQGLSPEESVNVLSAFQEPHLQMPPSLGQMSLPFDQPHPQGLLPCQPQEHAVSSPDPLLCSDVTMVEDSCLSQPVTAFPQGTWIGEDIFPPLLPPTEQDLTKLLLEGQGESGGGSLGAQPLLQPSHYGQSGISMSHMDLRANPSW
quantityKind: pIC50
By convention, pIC50 is the negative base-10 log of a molar concentration.

# query: pIC50 | item O=C(COc1ccc(C(=O)Nc2ccc(Oc3ccccc3)cc2)cc1)NCc1ccc(OP(=O)(O)O)c(OP(=O)(O)O)c1 | system: STAT6 (Homo sapiens, UniProt P42226)
4.63

----------
Target: STAT4 (Homo sapiens, UniProt Q14765)
Sequence (Q14765 1-748): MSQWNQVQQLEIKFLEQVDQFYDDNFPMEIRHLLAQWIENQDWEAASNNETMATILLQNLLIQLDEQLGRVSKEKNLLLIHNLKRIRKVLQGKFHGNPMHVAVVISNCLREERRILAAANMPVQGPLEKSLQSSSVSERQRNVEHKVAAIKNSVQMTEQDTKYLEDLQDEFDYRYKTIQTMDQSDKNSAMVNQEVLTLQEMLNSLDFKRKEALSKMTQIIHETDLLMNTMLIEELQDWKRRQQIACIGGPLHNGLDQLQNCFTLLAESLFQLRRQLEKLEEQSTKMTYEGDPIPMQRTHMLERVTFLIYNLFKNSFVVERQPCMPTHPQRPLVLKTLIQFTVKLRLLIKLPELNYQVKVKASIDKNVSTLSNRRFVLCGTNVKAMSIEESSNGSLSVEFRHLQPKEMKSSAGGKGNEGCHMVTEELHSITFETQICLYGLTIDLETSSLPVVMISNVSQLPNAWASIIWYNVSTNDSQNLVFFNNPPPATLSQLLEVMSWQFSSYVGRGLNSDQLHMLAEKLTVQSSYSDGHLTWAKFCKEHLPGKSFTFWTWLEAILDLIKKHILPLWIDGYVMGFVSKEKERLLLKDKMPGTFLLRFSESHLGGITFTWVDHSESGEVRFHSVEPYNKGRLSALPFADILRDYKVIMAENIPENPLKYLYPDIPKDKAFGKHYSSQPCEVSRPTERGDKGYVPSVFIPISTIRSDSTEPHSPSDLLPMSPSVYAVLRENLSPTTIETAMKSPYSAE
quantityKind: IC50 (µM)
Entry rule: numbers only, all in µM.

Quick one: IC50 for O=C(COc1ccc(C(=O)Nc2ccc(Oc3ccccc3)cc2)cc1)NCc1ccc(OP(=O)(O)O)c(OP(=O)(O)O)c1 ?
9.1

// data source = paper PMC5429769
